Each entry below carries its measured pIC50, system: Cytochrome P450 1A2 (Homo sapiens, UniProt P05177).
Sequence (P05177 whole entry): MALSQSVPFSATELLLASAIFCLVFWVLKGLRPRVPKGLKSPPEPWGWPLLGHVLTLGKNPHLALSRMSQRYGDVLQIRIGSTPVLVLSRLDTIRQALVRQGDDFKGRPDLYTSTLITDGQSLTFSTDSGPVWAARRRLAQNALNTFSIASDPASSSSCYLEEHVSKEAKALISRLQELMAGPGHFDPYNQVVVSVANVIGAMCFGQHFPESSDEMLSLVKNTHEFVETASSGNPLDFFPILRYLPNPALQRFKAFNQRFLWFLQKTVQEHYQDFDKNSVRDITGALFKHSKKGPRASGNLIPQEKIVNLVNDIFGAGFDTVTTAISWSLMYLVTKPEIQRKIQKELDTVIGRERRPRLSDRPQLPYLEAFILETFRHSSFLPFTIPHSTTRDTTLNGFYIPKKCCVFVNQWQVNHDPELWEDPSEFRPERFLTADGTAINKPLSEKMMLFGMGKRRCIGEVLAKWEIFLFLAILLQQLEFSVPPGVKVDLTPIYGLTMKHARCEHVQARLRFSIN
pIC50: −log10 of the molar value.
Readout Label: pIC50

- Query Smiles: "COc1c(-c2ccc3c(c2)OCO3)oc2c(ccc3occc32)c1=O"
  Data Value: 5.60
- Query Smiles: "O=c1cc(-c2ccccc2)oc2c1ccc1occc12"
  Data Value: 6.73

###

Experimental Target: Cytochrome P450 2C19 (Homo sapiens)
Sequence (P33261 whole entry): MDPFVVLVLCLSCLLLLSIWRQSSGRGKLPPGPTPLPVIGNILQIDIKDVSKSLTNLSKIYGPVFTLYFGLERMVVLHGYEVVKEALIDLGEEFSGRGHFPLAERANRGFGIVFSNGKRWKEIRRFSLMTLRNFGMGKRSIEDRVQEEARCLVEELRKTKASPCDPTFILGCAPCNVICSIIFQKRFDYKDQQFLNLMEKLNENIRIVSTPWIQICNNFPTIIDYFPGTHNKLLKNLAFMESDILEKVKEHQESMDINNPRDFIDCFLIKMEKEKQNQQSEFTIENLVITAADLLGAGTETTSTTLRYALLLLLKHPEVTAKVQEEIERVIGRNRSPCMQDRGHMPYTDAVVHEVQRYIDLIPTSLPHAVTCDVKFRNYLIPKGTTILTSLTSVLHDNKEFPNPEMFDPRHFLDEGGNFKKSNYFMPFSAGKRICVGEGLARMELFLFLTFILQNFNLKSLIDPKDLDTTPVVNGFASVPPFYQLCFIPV

- Query Smiles: "COc1c(-c2ccc3c(c2)OCO3)oc2c(ccc3occc32)c1=O"
  IC50: "> 20 µM"
- Query Smiles: "O=c1cc(-c2ccccc2)oc2c1ccc1occc12"
  IC50: "> 20 µM"

###

// reported pIC50 for each item listed
Experimental Target: Cytochrome P450 3A4 (Homo sapiens, UniProt P08684)
Sequence (P08684 whole entry): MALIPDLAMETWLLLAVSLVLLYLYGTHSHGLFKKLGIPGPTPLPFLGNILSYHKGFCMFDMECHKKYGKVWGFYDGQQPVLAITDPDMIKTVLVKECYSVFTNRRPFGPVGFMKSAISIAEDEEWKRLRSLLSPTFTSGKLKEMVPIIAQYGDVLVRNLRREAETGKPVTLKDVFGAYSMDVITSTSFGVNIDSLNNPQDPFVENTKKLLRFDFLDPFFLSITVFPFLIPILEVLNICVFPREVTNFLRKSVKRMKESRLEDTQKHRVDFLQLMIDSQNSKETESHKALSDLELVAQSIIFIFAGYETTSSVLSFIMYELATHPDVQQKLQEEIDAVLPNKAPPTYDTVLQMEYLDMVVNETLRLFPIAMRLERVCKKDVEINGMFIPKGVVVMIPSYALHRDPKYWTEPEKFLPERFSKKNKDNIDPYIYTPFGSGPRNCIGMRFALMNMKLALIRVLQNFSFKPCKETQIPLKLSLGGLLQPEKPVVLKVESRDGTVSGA
pIC50: −log10 of the molar value.

- Query Smiles: "COc1c(-c2ccc3c(c2)OCO3)oc2c(ccc3occc32)c1=O"
  pIC50: "< 4.70"
- Query Smiles: "O=c1cc(-c2ccccc2)oc2c1ccc1occc12"
  pIC50: "< 4.70"

###

Experimental Target: UniProt P04798
Assay Name: Inhibition of human CYP1A1 expressed in sacchrosomes using 7-ethoxyresorufin as substrate by fluorescence based assay
Readout Label: IC50 (nM)

- Query Smiles: "O=c1cc(-c2cccc(O)c2)oc2c1ccc1occc12"
  Readout Label: "IC50"
  Data Value: 690
- Query Smiles: "O=c1cc(-c2ccc3c(c2)OCO3)oc2c1ccc1occc12"
  Readout Label: "IC50"
  Data Value: 8200
- Query Smiles: "COc1c(-c2ccccc2)oc2c(ccc3occc32)c1=O"
  Readout Label: "IC50"
  Data Value: 2700
- Query Smiles: "COc1c(C(=O)/C=C(\\O)c2ccccc2)ccc2occc12"
  Readout Label: "IC50"
  Data Value: 2400

###

Experimental Target: Cytochrome P450 1B1 (Homo sapiens, UniProt Q16678)
Sequence (Q16678 whole entry): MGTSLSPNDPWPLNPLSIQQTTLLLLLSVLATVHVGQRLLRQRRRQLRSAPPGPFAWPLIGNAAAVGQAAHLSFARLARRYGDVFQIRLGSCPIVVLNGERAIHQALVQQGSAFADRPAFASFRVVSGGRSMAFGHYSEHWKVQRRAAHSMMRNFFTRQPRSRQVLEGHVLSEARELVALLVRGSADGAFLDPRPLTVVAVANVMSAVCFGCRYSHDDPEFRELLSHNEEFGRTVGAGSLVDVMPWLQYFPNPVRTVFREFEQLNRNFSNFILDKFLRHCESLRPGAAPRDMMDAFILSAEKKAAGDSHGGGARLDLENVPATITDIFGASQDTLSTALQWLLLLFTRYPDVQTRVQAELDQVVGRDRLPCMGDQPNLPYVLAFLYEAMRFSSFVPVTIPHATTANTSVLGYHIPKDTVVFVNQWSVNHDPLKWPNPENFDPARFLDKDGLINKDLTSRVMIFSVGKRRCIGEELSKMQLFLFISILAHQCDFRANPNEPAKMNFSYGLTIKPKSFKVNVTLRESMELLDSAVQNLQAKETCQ
Assay Name: Inhibition of human CYP1B1 expressed in sacchrosomes using 7-ethoxyresorufin as substrate by fluorescence based assay
Type: ADME
pIC50: −log10 of the molar value.
Readout Label: pIC50

- Query Smiles: "COc1c(-c2cc(-c3ccccc3)nn2-c2ccc(C#N)cc2)ccc2occc12"
  Readout Label: "pIC50"
  Censoring Qualifier: "="
  Data Value: 5.21
- Query Smiles: "COc1c(C(=O)/C=C(\\O)c2ccc3c(c2)OCO3)ccc2occc12"
  Readout Label: "pIC50"
  Censoring Qualifier: "="
  Data Value: 6.22
- Query Smiles: "COc1c(-c2ccc3c(c2)OCO3)oc2c(ccc3occc32)c1=O"
  Readout Label: "pIC50"
  Censoring Qualifier: "="
  Data Value: 6.02
- Query Smiles: "O=c1cc(-c2ccc3c(c2)OCO3)oc2c1ccc1occc12"
  Readout Label: "pIC50"
  Censoring Qualifier: "="
  Data Value: 5.47
- Query Smiles: "COc1c(-c2ccccc2)oc2c(ccc3occc32)c1=O"
  Readout Label: "pIC50"
  Censoring Qualifier: "="
  Data Value: 5.39
- Query Smiles: "O=c1cc(-c2cccc(O)c2)oc2c1ccc1occc12"
  Readout Label: "pIC50"
  Censoring Qualifier: "="
  Data Value: 5.42
- Query Smiles: "COc1c(C(=O)/C=C(\\O)c2ccccc2)ccc2occc12"
  Readout Label: "pIC50"
  Censoring Qualifier: "="
  Data Value: 5.41
- Query Smiles: "COc1c(-c2cc(-c3ccccc3)n(-c3ccc(C#N)cc3)n2)ccc2occc12"
  Readout Label: "pIC50"
  Censoring Qualifier: "<"
  Data Value: 4.70
- Query Smiles: "O=c1cc(-c2ccccc2)oc2c1ccc1occc12"
  Readout Label: "pIC50"
  Censoring Qualifier: "="
  Data Value: 6.54

###

Experimental Target: CYP1A1 (Homo sapiens)
Sequence (P04798 whole entry): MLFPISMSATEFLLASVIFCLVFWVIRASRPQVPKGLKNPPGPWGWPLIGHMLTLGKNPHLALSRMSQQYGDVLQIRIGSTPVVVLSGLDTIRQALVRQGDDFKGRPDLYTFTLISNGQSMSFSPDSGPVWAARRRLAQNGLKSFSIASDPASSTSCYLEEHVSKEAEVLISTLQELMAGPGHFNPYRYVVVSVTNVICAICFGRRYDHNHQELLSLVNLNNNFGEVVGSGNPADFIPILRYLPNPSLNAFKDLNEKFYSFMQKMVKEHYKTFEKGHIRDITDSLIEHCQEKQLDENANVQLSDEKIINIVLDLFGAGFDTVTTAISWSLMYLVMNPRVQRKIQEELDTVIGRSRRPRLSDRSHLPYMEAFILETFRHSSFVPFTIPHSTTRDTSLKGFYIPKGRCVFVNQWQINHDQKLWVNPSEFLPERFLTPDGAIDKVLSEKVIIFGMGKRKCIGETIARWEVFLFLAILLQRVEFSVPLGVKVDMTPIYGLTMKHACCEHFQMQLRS
Assay Name: Inhibition of human CYP1A1 expressed in human HEK293 cells at 10 uM using 7-ethoxyresorufin as substrate preincubated for 30 mins followed by substrate additon and measured after 60 mins by fluorescence based assay relative to control
Assay type: cell-based
Experimental Setup: HEK293 cells expressing human CYP1A1, probe 7-ethoxyresorufin, time 90 min
// reported inhibition at 1 h, 10 µM for each item listed
Readout Label: inhibition at 1 h, 10 µM

- Query Smiles: "COc1c(-c2cc(-c3ccccc3)n(-c3ccc(C#N)cc3)n2)ccc2occc12"
  Experimental Target: "CYP1A1 (Homo sapiens)"
  Data Value: "> 84%"
- Query Smiles: "COc1c(-c2cc(-c3ccccc3)nn2-c2ccc(C#N)cc2)ccc2occc12"
  Experimental Target: "CYP1A1 (Homo sapiens)"
  Data Value: "> 84%"

###

// reported log10 of IC50 for each item listed
Experimental Target: Cytochrome P450 1A1 (Homo sapiens)
Assay Name: Inhibition of human CYP1A1 expressed in human HEK293 cells using 7-ethoxyresorufin as substrate preincubated for 30 mins followed by substrate additon and measured after 60 mins by fluorescence based assay
Assay type: cell-based
Readout Label: log10 of IC50 (log10 of the value in nM)

- Query Smiles: "COc1c(-c2cc(-c3ccccc3)n(-c3ccc(C#N)cc3)n2)ccc2occc12"
  Data Value: 2.69
- Query Smiles: "O=c1cc(-c2ccccc2)oc2c1ccc1occc12"
  Data Value: 1.30
- Query Smiles: "COc1c(-c2ccccc2)oc2c(ccc3occc32)c1=O"
  Data Value: 1.48
- Query Smiles: "COc1c(C(=O)/C=C(\\O)c2ccc3c(c2)OCO3)ccc2occc12"
  Data Value: 2.68
- Query Smiles: "O=c1cc(-c2cccc(O)c2)oc2c1ccc1occc12"
  Data Value: 2.38

###

Experimental Target: UniProtKB P33260
Sequence (P33260 whole entry): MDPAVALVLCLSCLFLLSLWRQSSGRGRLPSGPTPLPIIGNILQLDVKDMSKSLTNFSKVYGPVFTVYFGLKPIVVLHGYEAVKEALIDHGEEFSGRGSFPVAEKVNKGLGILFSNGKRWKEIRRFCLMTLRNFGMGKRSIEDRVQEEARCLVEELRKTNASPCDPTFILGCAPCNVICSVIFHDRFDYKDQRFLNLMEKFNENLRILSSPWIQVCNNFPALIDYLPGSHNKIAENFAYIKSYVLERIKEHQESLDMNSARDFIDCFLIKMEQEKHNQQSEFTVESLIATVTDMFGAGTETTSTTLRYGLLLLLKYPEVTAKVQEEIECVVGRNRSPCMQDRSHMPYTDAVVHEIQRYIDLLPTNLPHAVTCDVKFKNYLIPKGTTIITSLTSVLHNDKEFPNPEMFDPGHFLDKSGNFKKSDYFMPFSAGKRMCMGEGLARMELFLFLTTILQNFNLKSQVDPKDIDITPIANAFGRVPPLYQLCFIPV
pIC50: −log10 of the molar value.

- Query Smiles: "O=c1cc(-c2ccccc2)oc2c1ccc1occc12"
  pIC50: "< 4.70"
- Query Smiles: "COc1c(-c2ccc3c(c2)OCO3)oc2c(ccc3occc32)c1=O"
  pIC50: "< 4.70"
